- ASSAY REMARKS: Solubility of Form I in aqueous media by HPLC (Example 4)
- Format: physicochemical
- SETUP CONDITIONS: aqueous medium, aqueous buffer, thermodynamic from solid; Aqueous pH 4; 18 hrs; 22° C.
ENDPOINT LABEL: solubility at 18 h (mg/mL)
Your answer should be a plain number; it is taken to be in mg/mL.

Exam item: What measured solubility at 18 h goes with COc1cc2c(cc1OC)[C@H]1C[C@@H](OC(=O)[C@@H](N)C(C)C)[C@H](CC(C)C)CN1CC2.Cc1ccc(S(=O)(=O)O)cc1.Cc1ccc(S(=O)(=O)O)cc1 [Form I] ?
Marked response: 27.8
